- PROTOCOL_DETAILS: physchem
- CONDITION_DETAILS: octanol/water, pH 7.4
Give met when the value for logD is at least 3. Give not met when it is less.

Decide: logD of `Cc1c(Cc2ccc(C(F)(F)F)nc2)c[nH]c1C(=O)N1CCC1` >= 3?
not met

Decide: logD of `Cc1[nH]c(C(=O)NC2CC2)cc1Cc1ccc(C(F)(F)F)nc1` >= 3?
not met

Decide: logD of `Cc1c(Cc2cnc(C(F)(F)F)nc2)c[nH]c1C(=O)NC1CC1` >= 3?
not met

Decide: logD of `Cc1c(Cc2ccc(C(F)(F)F)nc2)c[nH]c1C(=O)N1CC(F)(F)C1` >= 3?
met

Decide: logD of `Cc1[nH]c(C(=O)N2CCCCC2)cc1Cc1ccc(C(F)(F)F)nc1` >= 3?
met

Decide: logD of `Cc1c(Cc2ccc(C(F)(F)F)nc2)c[nH]c1C(=O)NC1CCC1` >= 3?
met

Decide: logD of `CCCNC(=O)c1[nH]c(C)c(Cc2ccc(C(F)(F)F)nc2)c1C` >= 3?
met

Decide: logD of `Cc1c(Cc2ccc(C(F)(F)F)cc2F)c[nH]c1C(=O)NC1CC1` >= 3?
met

Decide: logD of `CCOC(=O)c1[nH]c(C)c(Cc2ccc(C(F)(F)F)nc2)c1C` >= 3?
met

Decide: logD of `CCNC(=O)c1[nH]c(C)c(Cc2ccc(C(F)(F)F)nc2)c1C` >= 3?
not met

Decide: logD of `Cc1c(Cc2ccc(C(F)(F)F)cc2)c[nH]c1C(=O)NC1CC1` >= 3?
met

Decide: logD of `Cc1c(Cc2ccc(C(F)(F)F)nc2)c[nH]c1C(=O)NCC(F)(F)F` >= 3?
met

Decide: logD of `Cc1[nH]c(C(=O)N2CCCC2)cc1Cc1ccc(C(F)(F)F)nc1` >= 3?
met

Decide: logD of `Cc1[nH]c(C(=O)NC2CC2)c(C)c1C(=O)c1ccc(C(F)(F)F)cn1` >= 3?
not met

Decide: logD of `Cc1[nH]c(C(=O)NC2CC2)c(C)c1Oc1ccc(C(F)(F)F)nc1` >= 3?
not met

Decide: logD of Cc1c(C(O)c2ccc(C(F)(F)F)nc2)c[nH]c1C(=O)NC1CC1 (racemic) >= 3?
met

Decide: logD of `O=C(NC1CC1)c1cc(Cc2ccc(C(F)(F)F)nc2)c[nH]1` >= 3?
not met

Decide: logD of `Cc1c(Cc2ccc(C(F)(F)F)cc2Cl)c[nH]c1C(=O)NC1CC1` >= 3?
met

Decide: logD of `Cc1[nH]c(C(=O)NC2CC2)cc1Cc1cnc(C(F)(F)F)nc1` >= 3?
not met

Decide: logD of `CCOC(=O)c1[nH]c(C)c(Cc2ccc(OCC)cc2)c1C` >= 3?
met

Decide: logD of `Cc1c(Cc2ccc(C(F)(F)F)nc2)c[nH]c1C(=O)NC1CC1` >= 3?
not met

Decide: logD of `Cc1[nH]c(C(=O)N2CCC2)c(C)c1Cc1ccc(C(F)(F)F)nc1` >= 3?
not met

* * *

- Test system: Plasmodium falciparum
- PROTOCOL_DETAILS: animal or person
- CONDITION_DETAILS: 3D70087/N9, 96 h
Consider the following compounds; for each one, report its EC50.
Field format: number, assumed µM, no unit text.

Record request: EC50 value, item `Cc1cc(Nc2ccc(C(F)(F)F)nc2)n2nc(C(C)(F)F)nc2n1`
0.014

Record request: EC50 value, item Cc1cc(Nc2ccc(S(F)(F)(F)(F)F)cc2)n2nc(C(C)(F)F)nc2n1 [DSM-265]
0.006
